- measured_target: Leucine aminopeptidase (Plasmodium falciparum (isolate 3D7)) (UniProt Q8IL11)
- Sequence (Q8IL11 whole entry, looked up): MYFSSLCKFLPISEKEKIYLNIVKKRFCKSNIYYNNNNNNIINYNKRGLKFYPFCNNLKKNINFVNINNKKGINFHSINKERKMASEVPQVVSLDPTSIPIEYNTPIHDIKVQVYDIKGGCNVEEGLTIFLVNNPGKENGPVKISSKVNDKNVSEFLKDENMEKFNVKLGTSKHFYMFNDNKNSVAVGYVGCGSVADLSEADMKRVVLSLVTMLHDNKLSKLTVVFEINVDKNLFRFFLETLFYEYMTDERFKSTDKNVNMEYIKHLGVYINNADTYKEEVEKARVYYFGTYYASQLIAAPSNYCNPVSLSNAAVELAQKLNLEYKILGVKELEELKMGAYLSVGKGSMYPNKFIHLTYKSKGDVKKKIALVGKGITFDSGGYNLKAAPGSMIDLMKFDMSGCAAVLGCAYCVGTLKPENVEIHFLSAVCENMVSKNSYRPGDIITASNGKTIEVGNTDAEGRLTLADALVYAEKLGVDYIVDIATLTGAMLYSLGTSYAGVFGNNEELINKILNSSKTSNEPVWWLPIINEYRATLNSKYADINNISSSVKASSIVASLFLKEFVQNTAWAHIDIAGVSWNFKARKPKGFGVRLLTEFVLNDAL
- test_summary: P. falciparum M17LAP inhibitors, primary screen, biochemical, fluorogenic H-Leu-NHMec substrate, 1536-well (AID 1619);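 further: plate controls were full reaction with DMSO carrier for no effect and no enzyme background for full effect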
- stated_conditions: recombinant M17LAP, H-Leu-NHMec fluorogenic kinetic assay; at 30 µM; active compounds read high
About 830 (0.38%) of roughly 220,000 compounds were called active. Not all results are given here. Results with a measured potency or affinity are listed apart.
result_type: inhibition

Consider the following illustrative entries.
>  <smiles_entry>
Cc1cc(C)n(-c2nnc(C)n2N)n1

>  <result>
1.79% (inactive)

$$$$
>  <smiles_entry>
CC(C)[C@H](NS(=O)(=O)c1ccc2c(c1)OCCO2)C(=O)OCC(=O)Nc1ccccc1Cl

>  <result>
9.34% (inactive)

$$$$
>  <smiles_entry>
COc1ccc(-c2cn(-c3cccc(C)c3)c(=O)[nH]2)cc1OC

>  <result>
12.5% (inactive)

$$$$

Would you kindly look at the next entry?
Measured inhibition, COCCNC(=S)NNc1ccccc1[N+](=O)[O-] : 0.4% (inactive)

====

- measured_target: Leucine aminopeptidase (Plasmodium falciparum (isolate 3D7))
- test_summary: P. falciparum M17LAP inhibitors, primary screen, biochemical, fluorogenic H-Leu-NHMec substrate, 1536-well (AID 1619);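 further: plate controls were full reaction with DMSO carrier for no effect and no enzyme background for full effect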
- stated_conditions: recombinant M17LAP, H-Leu-NHMec fluorogenic kinetic assay; at 30 µM; active compounds read high
Hit rate of the full screen: of about 220,000 compounds, about 830 (0.38%) were called active. A selection follows. Potency and affinity values are given separately.
Kindly state inhibition for each of the entries shown.
Answers are plain numbers, in %.

>  <molecule>
Cc1ccc(O)c(C(=O)c2cnn(C(=O)Cc3csc(C)n3)c2)c1

>  <measured_target>
Leucine aminopeptidase (Plasmodium falciparum (isolate 3D7))

>  <inhibition [%]>
-1.8

$$$$
>  <molecule>
C/C(=C1/SC(=S)N(CCC(=O)O)C1=O)c1ccc(O)cc1

>  <measured_target>
Leucine aminopeptidase (Plasmodium falciparum (isolate 3D7))

>  <inhibition [%]>
52.2

$$$$
>  <molecule>
Cc1ccccc1/C=C1\SC(=S)N(/N=C/c2cc([N+](=O)[O-])ccc2O)C1=O

>  <measured_target>
Leucine aminopeptidase (Plasmodium falciparum (isolate 3D7))

>  <inhibition [%]>
15.5

$$$$
>  <molecule>
N#C/C(=C/c1ccc(OCc2ccc(C(=O)O)cc2)c(Br)c1)c1cccc(F)c1

>  <measured_target>
Leucine aminopeptidase (Plasmodium falciparum (isolate 3D7))

>  <inhibition [%]>
7.71

$$$$
>  <molecule>
Cc1ccc(NC(=O)COC(=O)Cn2c(C)csc2=O)cc1C

>  <measured_target>
Leucine aminopeptidase (Plasmodium falciparum (isolate 3D7))

>  <inhibition [%]>
4.89

$$$$
>  <molecule>
COC(=O)c1[nH]c(C)c(/C(O)=C2\C(=O)C(=O)N(CCN3CCOCC3)C2c2ccc(C)o2)c1C (stereo not given)

>  <measured_target>
Leucine aminopeptidase (Plasmodium falciparum (isolate 3D7))

>  <inhibition [%]>
3.85

$$$$
>  <molecule>
O=C(c1cnsn1)N1CCN(c2ccccn2)CC1

>  <measured_target>
Leucine aminopeptidase (Plasmodium falciparum (isolate 3D7))

>  <inhibition [%]>
-4.02

$$$$
>  <molecule>
COc1cc(/C=C/C(=O)c2c(O)cc(C)oc2=O)cc(OC)c1O

>  <measured_target>
Leucine aminopeptidase (Plasmodium falciparum (isolate 3D7))

>  <inhibition [%]>
23.1

$$$$

Hi there! I need inhibition for each item below, if you can.
1. COc1ccc(N=C2NC(=O)/C(=C/C=C/c3ccccc3)S2)cc1
2. COCCCN(C(=S)NC(=O)c1ccc(C(C)(C)C)cc1)c1c(N)n(Cc2ccccc2)c(=O)[nH]c1=O

[3.51, 16.9]

====

Would you kindly list inhibition for each of these compounds?
- measured_target: Leucine aminopeptidase (Plasmodium falciparum (isolate 3D7)) (UniProt Q8IL11)
- test_summary: P. falciparum M17LAP inhibitors, primary screen, biochemical, fluorogenic H-Leu-NHMec substrate, 1536-well (AID 1619);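 further: plate controls were full reaction with DMSO carrier for no effect and no enzyme background for full effect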
- stated_conditions: recombinant M17LAP, H-Leu-NHMec fluorogenic kinetic assay; at 30 µM; active compounds read high
Hit rate of the full screen: of about 220,000 compounds, about 830 (0.38%) were called active. The list is a sample of the results. Entries with a potency or affinity are not part of this list.
Give bare numbers, in %.

>  <compound>
CC(C)c1ccc(C(=O)CSc2n[nH]c(-c3ccncc3)n2)cc1

>  <measured_target>
Leucine aminopeptidase (Plasmodium falciparum (isolate 3D7)) (UniProt Q8IL11)

>  <quantitative_result>
6.54

$$$$
>  <compound>
O=C(CN1C(=O)C2C3C=CC(C3)C2C1=O)Nc1ccc2nccnc2c1 (stereo unspecified)

>  <measured_target>
Leucine aminopeptidase (Plasmodium falciparum (isolate 3D7)) (UniProt Q8IL11)

>  <quantitative_result>
1.82

$$$$
>  <compound>
O=C(CSc1ccccc1)Nc1ccccc1C(=O)O

>  <measured_target>
Leucine aminopeptidase (Plasmodium falciparum (isolate 3D7)) (UniProt Q8IL11)

>  <quantitative_result>
18.8

$$$$
>  <compound>
Cc1ccc(S(=O)(=O)N2CCN(CC(=O)NC3CCCc4ccccc43)CC2)c(C)c1 (stereo unspecified)

>  <measured_target>
Leucine aminopeptidase (Plasmodium falciparum (isolate 3D7)) (UniProt Q8IL11)

>  <quantitative_result>
5.05

$$$$
>  <compound>
COc1ccc(NC(=S)N(Cc2ccc(C)cc2)Cc2ccccn2)cc1

>  <measured_target>
Leucine aminopeptidase (Plasmodium falciparum (isolate 3D7)) (UniProt Q8IL11)

>  <quantitative_result>
4.2

$$$$
>  <compound>
O=C(c1cc2cccc([N+](=O)[O-])c2oc1=O)N1CCOCC1

>  <measured_target>
Leucine aminopeptidase (Plasmodium falciparum (isolate 3D7)) (UniProt Q8IL11)

>  <quantitative_result>
14.7

$$$$
>  <compound>
Cc1nnc(SCC(=O)c2ccc(C(C)C)cc2)s1

>  <measured_target>
Leucine aminopeptidase (Plasmodium falciparum (isolate 3D7)) (UniProt Q8IL11)

>  <quantitative_result>
-0.89

$$$$
>  <compound>
CCOc1ccc(OCC)c(NC(=O)C2CCCN(S(=O)(=O)c3c(C)noc3C)C2)c1 (stereo unspecified)

>  <measured_target>
Leucine aminopeptidase (Plasmodium falciparum (isolate 3D7)) (UniProt Q8IL11)

>  <quantitative_result>
3.89

$$$$
>  <compound>
CCOC(=O)C1=C(C)N(C)C(C)=C(C(=O)OCC)C1c1ccc(C(=O)OC)cc1

>  <measured_target>
Leucine aminopeptidase (Plasmodium falciparum (isolate 3D7)) (UniProt Q8IL11)

>  <quantitative_result>
3.78

$$$$
>  <compound>
O=C(C1=C(O)C(=O)N(CCN2CCOCC2)C1c1ccncc1)c1ccco1 (stereo unspecified)

>  <measured_target>
Leucine aminopeptidase (Plasmodium falciparum (isolate 3D7)) (UniProt Q8IL11)

>  <quantitative_result>
17.6

$$$$

Give measured inhibition for every item shown.
1. CC(=O)Nc1c(C(=O)N2CCN(c3ccccn3)CC2)cnn1-c1ccc(C)cc1
2. O=C(NC1CCCc2ccccc21)c1cccc(S(=O)(=O)N2CCOCC2)c1 (stereo unspecified)
3. CCCc1nc2ccccc2c(=O)n1/N=C/c1ccc(O)cc1
4. CC(C)c1nc(SCC(=O)Nc2ccc([N+](=O)[O-])cc2Br)n[nH]1
5. Cc1ccc(C)c(S(=O)(=O)N2CCN(C(=O)c3cnccn3)CC2)c1

1. 11
2. 2.84
3. -6.52
4. 6
5. 6.85

For every item below, please supply its inhibition.
1. COc1ccc(/C=C/C(=O)Nc2cc(=O)n(C)c(=O)n2C)cc1
2. CC(C)C(=O)c1cc2c(cc1NC(=O)c1cccs1)OCCO2
3. Cc1ccc(Cn2c(=O)cc(C(=O)O)c3ccccc32)cc1

1. 50.5
2. 2.83
3. -52.6

Batch lookup, inhibition per entry.
1. O=C(CSCc1ccccc1Br)N/N=C/c1ccc(OCC(=O)N2CCCCC2)cc1
2. CSc1cccc(NC(=O)C2CCN(S(=O)(=O)c3ccc(F)cc3)CC2)c1
3. CCCC(=O)NNC(=O)CCC(=O)Nc1ccccc1Cl
4. O=C(O)COc1cccc(NC(=O)C2CCCO2)c1 (stereo unspecified)
5. Cc1ccc(OCC(=O)Nc2sc3c(c2C#N)CCC3)cc1
6. O=[N+]([O-])c1cccc2ccc(/C=C/c3ccc(C(F)(F)F)cc3)nc12
7. C=CCNC(=O)C(=O)c1cccn1-c1ccsc1C(=O)OC

[9.49, -0.52, 6.3, 5.81, 4.24, 5.36, 1.96]

Parameters: items (list). Returns: inhibition for each item.
1. Cc1ccc(Cn2c(SCc3cccnc3)nc3c2c(=O)n(C)c(=O)n3C)cc1
2. O=C(c1cccc(NS(=O)(=O)c2cccc(F)c2)c1)N1CCN(c2ccccc2)CC1
3. COc1ccccc1NC(=O)CSc1ncn(-c2ccccc2)n1
4. Cc1ccc(NN=C2c3ccccc3-c3ccccc32)cc1
5. O=C(c1ccc(Br)cc1)N(C1=NCCCCS1)c1ccccc1
6. O=C(Cn1cnc2c(cnn2-c2ccc(Cl)cc2)c1=O)NCC1CCCO1 (stereo unspecified)

1: 5.09; 2: -9.4; 3: 5.61; 4: 5.01; 5: -5.89; 6: 8.72

meta.source: PubChem BioAssay AID1619
